Provenance of the data: ChEMBL document CHEMBL1697781

Tested on: Hepatotoxicity
Assay Explanation: FDA HLAED, gamma-glutamyl transferase (GGT) increase
Reported Conditions: human
Property Label: GGT Increase - Activity Score

Below, each entry is followed by its recorded GGT Increase - Activity Score result.
Molecule | Property Label | Value
CC[C@H]1OC(=O)[C@H](C)[C@@H](O[C@H]2C[C@@](C)(OC)[C@@H](O)[C@H](C)O2)[C@H](C)[C@@H](O[C@@H]2O[C@H](C)C[C@H](N(C)C)[C@H]2O)[C@](C)(OC)C[C@@H](C)C(=O)[C@H](C)[C@@H](O)[C@]1(C)O [CLARITHROMYCIN] | GGT Increase - Activity Score | Inactive
C[C@H](CCC(=O)O)[C@H]1CC[C@H]2[C@@H]3[C@H](O)C[C@@H]4C[C@H](O)CC[C@]4(C)[C@H]3CC[C@]12C [CHENODIOL] | GGT Increase - Activity Score | Inactive
O=c1[nH]c2ccccc2n1C1CCN(CCCC(c2ccc(F)cc2)c2ccc(F)cc2)CC1 [PIMOZIDE] | GGT Increase - Activity Score | Inactive
Nc1nc(/C(=C/CC(=O)O)C(=O)N[C@@H]2C(=O)N3C(C(=O)O)=CCS[C@H]23)cs1 [CEFTIBUTEN] | GGT Increase - Activity Score | Inactive
COc1cc(C(=O)NS(=O)(=O)c2ccccc2C)ccc1Cc1cn(C)c2ccc(NC(=O)OC3CCCC3)cc12 [ZAFIRLUKAST] | GGT Increase - Activity Score | Inactive

Case FC(F)OC(F)C(F)(F)F (configuration not stated) , Hepatotoxicity, GGT Increase - Activity Score recorded as Inactive

Case C[C@H](O)C(=O)Nc1c(I)c(C(=O)NC(CO)CO)c(I)c(C(=O)NC(CO)CO)c1I [IOPAMIDOL] , Hepatotoxicity, GGT Increase - Activity Score recorded as Inactive
